Test system: 377384-186-R-J1-PDC complex spheroid viability;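 also: spheroids exposed to compounds for seven days before readout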
test-description: Anticancer human tumor 377384-186-R-J1-PDC patient-derived pancreatic carcinoma cell line growth inhibition [RAS]
settings: second compound 0.1 µM; first compound 0.316 µM; active compounds read low
property-label: viability, T/C (%)
Give just the numeric value; % need not be written.

Use these answered entries as a reference point.
| compound | numeric-result |
| --- | --- |
| CC1(O)CCCC1n1c(=O)c(C(F)F)cc2cnc(NC3CCN(S(C)(=O)=O)CC3)nc21 (stereo unspecified) + C#Cc1c(F)ccc2cc(O)cc(-c3ncc4c(N5CC6CCC(C5)N6)nc(OCC56CCCN5CC(F)C6)nc4c3F)c12 | 6.54 |
| CC1(O)CCCC1n1c(=O)c(C(F)F)cc2cnc(NC3CCN(S(C)(=O)=O)CC3)nc21 (stereo unspecified) + C=CC(=O)N1CCN(c2nc(OCC3CCCN3C)nc3c(F)c(-c4nc(N)cc(C)c4C(F)(F)F)c(Cl)cc23)C(C)C1 | 20.4 |
| NC1c2ccccc2OC12CCN(c1cnc3c(N4CCCc5ncccc54)n[nH]c3n1)CC2 (stereo unspecified) + C#Cc1c(F)ccc2cc(O)cc(-c3ncc4c(N5CC6CCC(C5)N6)nc(OCC56CCCN5CC(F)C6)nc4c3F)c12 | 0.82 |
| CCN1CCN(Cc2ccc(Nc3ncc(F)c(-c4cc(F)c5nc(C)n(C(C)C)c5c4)n3)nc2)CC1 + C=CC(=O)N1CCN(c2nc(OCC3CCCN3C)nc3c(F)c(-c4nc(N)cc(C)c4C(F)(F)F)c(Cl)cc23)C(C)C1 | 44.6 |
| NC1c2ccccc2OC12CCN(c1cnc3c(N4CCCc5ncccc54)n[nH]c3n1)CC2 (stereo unspecified) + C=CC(=O)N1CCN(c2nc(OCC3CCCN3C)nc3c(F)c(-c4nc(N)cc(C)c4C(F)(F)F)c(Cl)cc23)C(C)C1 | 75.9 |

Kindly consider the entry below.
# lookup: viability, T/C of Cc1nc(N2CCC3(CC2)COC(C)C3N)c(CO)nc1Sc1ccnc(N)c1Cl (stereo unspecified) + C#Cc1c(F)ccc2cc(O)cc(-c3ncc4c(N5CC6CCC(C5)N6)nc(OCC56CCCN5CC(F)C6)nc4c3F)c12
1.59
